- assay-protocol: Antagonist activity at CCR4 in human CCRF-CEM cells assessed as inhibition of CCL22-mediated chemotaxis in presence of 100% human serum pre-incubated for 30 mins followed by CCL22 addition and measured after 60 mins by chemoTX probe based CellTiter-Glo assay
recorded-metric: pIC50
Keep it numeric: pIC50 is minus log10 of the concentration in mol/L.

Q. Returns the measured pIC50 for the input molecule. Input: `C[C@@H]1CC(c2cnc3c(C#N)nn([C@H](C)c4ccc(Cl)cc4Cl)c3n2)=CC[C@@H]1N1CCC[C@H]1C(N)=O`
A. 5.86

Q. Data request, read-out pIC50, for `C[C@@H]1CC(c2cnc3c(C#N)nn([C@H](C)c4ccc(Cl)cc4Cl)c3n2)=CC[C@@H]1N1CCC[C@H]1C`
A. 7.36

Q. Report pIC50 for `Cc1nn([C@H](C)c2ccc(Cl)cc2Cl)c2nc(N3CC[C@H](N4CCCCC4)[C@H](C)C3)cnc12` please.
A. 6.44

Q. If you can, please state the reported pIC50 value of `Cc1nn([C@H](C)c2ccc(Cl)cc2Cl)c2nc(N3CC[C@H](N4CCC[C@H]4CCS(N)(=O)=O)[C@H](C)C3)cnc12` .
A. 6.59

Q. Look up pIC50: `C[C@@H]1CC(c2cnc3c(C#N)nn([C@H](C)c4ccc(Cl)cc4Cl)c3n2)=CC[C@@H]1N1CCC[C@H]1C(C)(C)O`
A. 5.92

Q. Please give the measured pIC50 for this molecule: `C[C@@H]1CC(c2cnc3c(C#N)nn([C@H](C)c4ccc(Cl)cc4Cl)c3n2)=CC[C@@H]1N1CCC[C@H]1CO`
A. 7.15

Q. What does the data say about its pIC50? Entry: `C[C@@H]1CC(c2cnc3c(C#N)nn([C@H](C)c4ccc(Cl)cc4Cl)c3n2)=CC[C@@H]1N1CCC[C@H]1CN`
A. 6.20

Q. # input molecule: `Cc1nn([C@H](C)c2ccc(Cl)cc2Cl)c2nc(N3CC[C@H](N4CCC[C@H]4CCC#N)[C@H](C)C3)cnc12` ; wanted: its pIC50
A. 6.06

Q. Give its pIC50 value. Item: `Cc1nn([C@H](C)c2ccc(Cl)cc2Cl)c2nc(C3=CC[C@H](N4CCC[C@H]4CO)[C@H](C)C3)cnc12`
A. 6.75

Q. I'd like to know its pIC50. The molecule in question is `Cc1nn([C@H](C)c2ccc(Cl)cc2Cl)c2nc(N3CC[C@H](N4CCC[C@H]4CCC(N)=O)[C@H](C)C3)cnc12`
A. 6.45
